Quick reference for 8OG:A repair function score among some variants
B1: library; numbered along this chain (parent)
chain: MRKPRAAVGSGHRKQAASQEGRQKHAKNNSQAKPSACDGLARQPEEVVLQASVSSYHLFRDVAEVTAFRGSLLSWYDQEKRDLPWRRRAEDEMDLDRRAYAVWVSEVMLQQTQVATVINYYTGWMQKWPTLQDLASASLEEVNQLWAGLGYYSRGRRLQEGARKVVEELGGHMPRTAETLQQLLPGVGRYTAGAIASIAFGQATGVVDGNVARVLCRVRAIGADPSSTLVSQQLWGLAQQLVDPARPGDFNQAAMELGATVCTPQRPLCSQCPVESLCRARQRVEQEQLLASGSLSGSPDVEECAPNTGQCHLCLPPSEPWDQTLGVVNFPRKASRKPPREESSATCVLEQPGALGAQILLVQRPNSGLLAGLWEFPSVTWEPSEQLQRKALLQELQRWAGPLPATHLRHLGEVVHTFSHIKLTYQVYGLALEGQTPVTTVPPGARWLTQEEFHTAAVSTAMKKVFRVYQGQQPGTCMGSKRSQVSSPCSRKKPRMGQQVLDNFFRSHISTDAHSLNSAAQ

variants of: B1; test: 8OG:A repair function score (normalized; synonymous = 0, nonsense = -1) (normalized log-likelihood score); higher = more repair activity (WT-like); conditions: with 8OG:A DNA repair reporter (GFP) in HEK-293 MUTYH KO cells;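 also: cells sorted at 72 h after reporter transfection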
Form rule: numeric answer, no unit written next to it.

Record excerpt, results attached:
A51D :: 0.029
D243W :: -0.67
R86D :: -1.26
Q181W :: -0.337
Q394W :: -0.387

Now look at this one.
Fill blank: measured 8OG:A repair function score of the variant Q351W is ____. -0.0304
